# target_or_test_system: HCV RNA-dependent RNA polymerase NS5B (Δ21) (Hepatitis C virus genotype 1b)
# Sequence (P26663 2420-2989, stated change not applied): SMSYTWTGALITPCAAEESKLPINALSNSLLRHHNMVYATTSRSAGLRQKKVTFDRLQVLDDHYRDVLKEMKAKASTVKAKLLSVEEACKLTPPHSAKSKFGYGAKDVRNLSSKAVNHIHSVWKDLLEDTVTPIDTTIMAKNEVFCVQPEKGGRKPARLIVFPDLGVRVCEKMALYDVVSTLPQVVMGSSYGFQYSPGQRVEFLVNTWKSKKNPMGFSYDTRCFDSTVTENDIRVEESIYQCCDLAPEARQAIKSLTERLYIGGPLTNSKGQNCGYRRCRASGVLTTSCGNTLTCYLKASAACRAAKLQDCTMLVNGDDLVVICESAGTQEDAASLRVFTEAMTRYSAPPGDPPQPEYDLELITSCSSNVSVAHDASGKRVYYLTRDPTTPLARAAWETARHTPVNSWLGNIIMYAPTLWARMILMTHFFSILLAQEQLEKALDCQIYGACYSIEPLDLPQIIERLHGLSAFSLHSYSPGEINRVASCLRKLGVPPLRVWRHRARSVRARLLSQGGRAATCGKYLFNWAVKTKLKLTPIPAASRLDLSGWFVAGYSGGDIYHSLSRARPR
# protocol_description: Assay for HCV RNA-dependent RNA polymerase activity (SPA, [3H]-GTP incorporation)
# Assay type: biochemical
# condition_info: read-out: Δ21 Activity (IC50 μM); 50 nM NS5B (Δ21), class symbols
parameter_measured: IC50

O=C(Cn1nc(NS(=O)(=O)c2ccc([N+](=O)[O-])cc2)cc1C(=O)N[C@H]1CCCC[C@@H]1OCc1ccccc1)N[C@H]1CCCC[C@@H]1OCc1ccccc1 :: 0.1 to 1 µM
O=C(Cn1nc(C(=O)NCc2cccs2)cc1C(=O)N[C@H]1CCCC[C@@H]1OCc1ccccc1)N[C@H]1CCCC[C@@H]1OCc1ccccc1 :: 0.1 to 1 µM

Moving on to the next compound.
# IC50 of `O=C(Cn1nc(NS(=O)(=O)c2cccc(Cl)c2)cc1C(=O)N[C@H]1CCCC[C@@H]1OCc1ccccc1)N[C@H]1CCCC[C@@H]1OCc1ccccc1` = 0.1 to 1 µM
